assay: Fraction unbound in CD1 mouse brain at 30 mg/kg, po at 4 hrs by LC-MS/MS analysis; type: ADME, organism-based; design: dose 30 mg/kg, route oral
Recorded endpoint: fraction unbound at 4 h
Kindly provide the number alone.

Query block: So what's the measured fraction unbound at 4 h for this one? `COc1cc(Nc2cccn3cc(C4CCOCC4)nc23)ccc1-n1cnc(C)c1`
Result block: 0.019

====

assay: Plasma concentration in CD1 mouse at 10 mg/kg, po at 8 hrs by LC-MS/MS analysis; type: ADME, organism-based; set-up: dose 10 mg/kg, route oral
Recorded endpoint: concentration at 8 h (nM)
All answers are understood in nM, so give the number only.

Query block: Returns the measured concentration at 8 h for the input compound. Input: `COc1nc(Nc2cccc3c2nc(-c2ccc(F)cc2)n3C)ccc1-n1cnc(C)c1`
Result block: 2700
